Some molecules, each annotated with its measured Bleeding time.
System: BALb/c mice
Test: Mouse tail bleeding time
Assay type: in vivo
Details: 100 μg·kg^−1 tail vein, tail transected after 10 min
Please give a number only; it is taken to be in min.

Ask | In one line, give reported Bleeding time of the entry NAPTin-1 (protein, Sequence derived from Ancylostoma caninum or Synthetic) NPSCGENERHDECSRKECDPKCKYDGTEEKDDEKPVVCLTRVCYGDCICRDGFLRNKNGACVKAEDCELD .
Reply | 8.34

Ask | In one line, give reported Bleeding time of the entry NAPTin-7 (protein, Sequence derived from Ancylostoma caninum or Synthetic) NPSCGENERHDECSRKECDPKCKYDGTEEKDDEKPVVCLTRVCYGDCICRDGFLRNKNGACVKAEDC .
Reply | 8.30

Ask | In one line, give reported Bleeding time of the entry NAPTin-5 (protein, Sequence derived from Ancylostoma caninum or Synthetic) NPSCGENERHDECSRKECDPKCKYDGTEEKDDEKPVVCLTRVCYGDCICRDGFLRNKNGACVKAEDCEL .
Reply | 8.30

Ask | In one line, give reported Bleeding time of the entry NAPTin-3 (protein, Sequence derived from Ancylostoma caninum or Synthetic) NPSCGENERHDECSRKECDPKCKYDGTEEKDDEKPVVCLTRVCYGDCICRDGFLRNKNGACVKAEDCELDNM .
Reply | 8.38
